- Test system: MDA-N
- Measurement notes: NCI tumour cell line growth inhibition, 48 h
Readout name: TGI (µM)
Give bare numbers, in µM.

> print(dat)
                                   compound  target.system  value.observed
1  COc1ccccc1C1C2=C(COC2=O)Oc2cc3c(cc21)OCO3 (centres undefined)          MDA-N           0.763
2  CC(=O)O[C@@H]1[C@H](OC2CCCCC2(c2ccccc2)c2ccccc2)O[N+]([O-])=CC12CCCCC2 (some centres undefined)          MDA-N            36.7
3  COc1ccc(C=Nc2ccc(-c3nc4ccccc4s3)cc2)cc1OC          MDA-N              99

Q: Quote TGI reported for COc1ccc2c(c1)CC[C@@H]1[C@@H]2CC[C@]2(C)/C(=N/OCCN3CCCC3)CC[C@@H]12 please.
Result: 3.98
